- TEST_SYSTEM: recombinant homotrimeric HA, A/South Carolina/1/18 H1N1 (Influenza A virus A/South Carolina/1/18 (H1N1))
- PROCEDURE_TEXT: trimeric HA microarray, transfection set 5
- TEST_SETTINGS: remark: other sources report otherwise
MEASUREMENT_KIND: Trimeric HA Binding RLU (RLU)
I only need the number, in RLU, no unit after it.

BINDER	Trimeric HA Binding RLU, RLU
TCN-542 (5079_A16) (antibody, V domains shown) VH: QVQLQESGPGLVKPSQTLSLTCTVSGGSISSGNYYWNWVRQHPGKGLEWIGYIYYRGSTFYNPSLKSRVTISIDTSKNQFSLRLSSVTAADTAVYYCAKDTRSSLDNYQYGMDVWGQGTTVTVSS VL: QTVVTQEPSLTVSPGGTVTLTCASSTGAVTSSYFPNWFQQKPGQAPRPLIYSTTIRHSWTPARFSGSLLGGKAALTLSGVQPEDEADYYCLLYSGGDPVAFGGGTKLTVL	1120

// query Any idea what Trimeric HA Binding RLU was measured for TCN-546 (5089_L08) (antibody, V domains shown) VH: QVQLQQWGAGLLKPSETLSLTCGVYGGSLSDYYWSWIRQPPGKGLEWIGEINHSGGTNYNPSLKRRVTISVDTSKKQFSLKMNSVTAADTAVYYCARGTDPDTEVYCRAGNCAAFDFWGQGTLVTVSS VL: EIVLTQSPGTLSLSPGERATLSCRASHFVIGRAVAWYQQKPGQAPRLLIYGASSRATGIPDRFSGSGSGTDFTLTISRLETEDFAVFYCQHYGSSPRYAFGQGTKLEIK ?
// result 955

// query TCN-555 (5246_L16) (antibody, V domains shown) VH: QVQLVQSGAEVKRPGSSVKVSCTASGGIFRKNAISWVRQAPGQGLEWMGGIIAVFNTANYAQKFQNRVKITADESGNTAYMELSSLTSDDTAVYYCASHPKYFYGSGSYPDFWGQGTLVTVSS VL: QSALTQPRSVSGSPGQSITISCTGGSSDIGASNSVSWYQQHPGKAPKLVIFDVTERPSGVPHRFSGSKSGNTASLTVSGLQPDDEADYFCCAYGGKYLVVFGGGTKVTVL ?
// result 48000
